test system: COG-LL-355h; test: selective drug sensitivity score (sDSS, relative to normal bone marrow) (sDSS (score)); higher = more potent and effective on the cell line relative to normal bone marrow cells; details: 72 h;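 note: ALL cell lines in 384-well plates, five doses spanning 10,000-fold, each plate scaled between vehicle and 100 µmol/L benzalkonium chloride controls, sDSS an adapted area-under-curve metric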
assay metric: selective drug sensitivity score
// print number alone

| compound | assay metric | reported value |
| --- | --- | --- |
| CC(C)[C@H](C(=O)Nc1ccc(C(=O)NO)cc1)c1ccccc1 [AR-42] (top concentration 10000 nM) | selective drug sensitivity score | 6.68 |
| COCC[n+]1c2c(n(Cc3cnccn3)c1C)C(=O)c1ccccc1C2=O [Sepantronium_bromide] (top concentration 10000 nM) | selective drug sensitivity score | 15.5 |
| Cc1nc(NC(=O)N2CCC[C@H]2C(N)=O)sc1-c1ccnc(C(C)(C)C(F)(F)F)c1 [Alpelisib] (top concentration 2500 nM) | selective drug sensitivity score | 5.98 |
| CCS(=O)(=O)Nc1ccc(Oc2ccc(F)cc2F)c(-c2cn(C)c(=O)c3[nH]ccc23)c1 [Mivebresib] (top concentration 10000 nM) | selective drug sensitivity score | 6 |
| CCN(CC)CCNC(=O)c1c(C)[nH]c(/C=C2\C(=O)Nc3ccc(-c4csc(-c5ccccc5)n4)cc32)c1C [Amcasertib] (top concentration 10000 nM) | selective drug sensitivity score | 6.8 |
| NC1(C(=O)N[C@@H](CCO)c2ccc(Cl)cc2)CCN(c2ncnc3[nH]ccc23)CC1 [AZD-5363] (top concentration 10000 nM) | selective drug sensitivity score | 5.92 |

Task item: Given CNC(=O)c1ccc(C)c(-n2c(C)cc(OCc3ccc(F)cc3F)c(Br)c2=O)c1 (top concentration 1000 nM) , state its recorded selective drug sensitivity score.
Reply: 0

Task item: Follow-up entry: Cc1sc2c(c1C)C(c1ccc(Cl)cc1)=N[C@@H](CC(=O)NCCCCNC(=O)COc1cccc3c1C(=O)N(C1CCC(=O)NC1=O)C3=O)c1nnc(C)n1-2 (some centres not stated) [dBET1] (top concentration 10000 nM)
Reply: 6.22

Task item: Subsequent entry: C[C@H]1CN(C2COC2)CCN1c1ccc(Nc2cc(-c3ccnc(N4CCn5c(cc6c5CC(C)(C)C6)C4=O)c3CO)cn(C)c2=O)nc1 [GDC-0853] (top concentration 1000 nM)
Reply: 0
